B1: F1*; the commonest letter at each place (parent)
chain: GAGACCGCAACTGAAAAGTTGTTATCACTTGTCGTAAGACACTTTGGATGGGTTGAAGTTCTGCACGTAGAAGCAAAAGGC

variants of: B1; assay: fraction ligated after 30 min (ligated reads / total reads); higher = more ligase activity; conditions: with F1*sub RNA substrate (template-directed ligation), 42 °C
Recorded fraction ligated for the following variants
Note: the reply should be a number with no unit written.

The examples below pair each entry with its known result.
>>> number("GAGACCGCAACTGAAAAGTTGTTATCACTTCTCGTAAGACACTTTGGATGGGTTTAAGTTCTGCACGTAGAAGCAAAAGGC")
0.794
>>> number("GAGACCGCAACTGAAAAGTTGTTATCAGTCGTCGTAAGACACTTTGGATGGGTTGAAGTTCTGCACGTAGAAGCAAAAGGC")
0.794
>>> number("GAGACCGCAACTGAAAAGTTGTTATCACTTGTACTAAGACACTTTGGATGGGTTGAAGTTCTGCACGTAGAAGCAAAAGGC")
0.805
>>> number("GAGACCGCAACTGAAAAGTTGTTATCCCTTTTCGTAAGACACTTTGGATGGGTTGAAGTTCTGCACGTAGAAGCAAAAGGC")
0.789
>>> number("GAGACCGCAACTGAAAAGTTGTTATCACTTGTCGTAAGACACTTTCGATGGGTTGCAGTTCTGCACGTAGAAGCAAAAGGC")
0.324
>>> number("GAGACCGCAACTGAAAAGTTGTTATCAATTGACGTAAGACACTTTGGATGGGTTGAAGTTCTGCACGTAGAAGCAAAAGGC")
0.836
>>> number("GAGACCGCAACTGAAAAGTTGTTATCACTGGTCGTAATACACTTTGGATGGGTTGAAGTTCTGCACGTAGAAGCAAAAGGC")
0.816
>>> number("GAGACCGCAACTGAAAAGTTGTTATCACTTGTGGTAAGACATTTTGGATGGGTTGAAGTTCTGCACGTAGAAGCAAAAGGC")
0.833

**Query** I'd like to know its fraction ligated. The variant in question is GAGACCGCAACTGAAAAGTTGTTTTCACGTGTCGTAAGACACTTTGGATGGGTTGAAGTTCTGCACGTAGAAGCAAAAGGC
**Result** 0.716

**Query** Param item = GAGACCGCAACTGAAAAGTTGTTATCACTTTTAGTAAGACACTTTGGATGGGTTGAAGTTCTGCACGTAGAAGCAAAAGGC ; retrieve measured fraction ligated.
**Result** 0.831

**Query** Fill in: fraction ligated of GAGACCGCAACTGAAAAGTTGTTATCATTTGTCATAAGACACTTTGGATGGGTTGAAGTTCTGCACGTAGAAGCAAAAGGC is ___
**Result** 0.814

**Query** Need fraction ligated, item GAGACCGCAACTGAAAAGTTGTTATCCGTTGTCGTAAGACACTTTGGATGGGTTGAAGTTCTGCACGTAGAAGCAAAAGGC
**Result** 0.807

**Query** What does the record list as fraction ligated for GAGACCGCAACTGAAAAGTTGTTATCACTTGGCGTAAGTCACTTTGGATGGGTTGAAGTTCTGCACGTAGAAGCAAAAGGC ?
**Result** 0.862

**Query** Record request: fraction ligated value, item GAGACCGCAACTGAAAAGTTGTTATCACTTGTCGTAAGACGCTTGGGATGGGTTGAAGTTCTGCACGTAGAAGCAAAAGGC
**Result** 0.119

**Query** Using the record for GAGACCGCAACTGAAAAGTTGTTATCACTTGTCGCAAGACACTTTGGGTGGGTTGAAGTTCTGCACGTAGAAGCAAAAGGC , report its fraction ligated.
**Result** 0.805

**Query** What does the data say about its fraction ligated? Entry: GAGACCGCAACTGAAAAGTTGTTATCCCTTGTCGTAAGACACTTTGGAGGGGTTGAAGTTCTGCACGTAGAAGCAAAAGGC
**Result** 0.733

**Query** Quick check: fraction ligated of GAGACCGCAACTGAAAAGTTGTTAGCACATGTCGTAAGACACTTTGGATGGGTTGAAGTTCTGCACGTAGAAGCAAAAGGC ?
**Result** 0.773

**Query** What fraction ligated value was documented for this variant, GAGACCGCAACTGAAAAGTTGTTATCACTTGTCGTAAGACACTTTGGATGGGTTGTGGTTCTGCACGTAGAAGCAAAAGGC ?
**Result** 0.217

// provenance: the supplement of paper PMC6755084
